- Measurement target: Large T antigen (Simian virus 40, UniProt P03070);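 also: Confirmatory-stage PubChem screen for compounds that inhibit SV40 T antigen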
- Sequence (P03070 whole entry): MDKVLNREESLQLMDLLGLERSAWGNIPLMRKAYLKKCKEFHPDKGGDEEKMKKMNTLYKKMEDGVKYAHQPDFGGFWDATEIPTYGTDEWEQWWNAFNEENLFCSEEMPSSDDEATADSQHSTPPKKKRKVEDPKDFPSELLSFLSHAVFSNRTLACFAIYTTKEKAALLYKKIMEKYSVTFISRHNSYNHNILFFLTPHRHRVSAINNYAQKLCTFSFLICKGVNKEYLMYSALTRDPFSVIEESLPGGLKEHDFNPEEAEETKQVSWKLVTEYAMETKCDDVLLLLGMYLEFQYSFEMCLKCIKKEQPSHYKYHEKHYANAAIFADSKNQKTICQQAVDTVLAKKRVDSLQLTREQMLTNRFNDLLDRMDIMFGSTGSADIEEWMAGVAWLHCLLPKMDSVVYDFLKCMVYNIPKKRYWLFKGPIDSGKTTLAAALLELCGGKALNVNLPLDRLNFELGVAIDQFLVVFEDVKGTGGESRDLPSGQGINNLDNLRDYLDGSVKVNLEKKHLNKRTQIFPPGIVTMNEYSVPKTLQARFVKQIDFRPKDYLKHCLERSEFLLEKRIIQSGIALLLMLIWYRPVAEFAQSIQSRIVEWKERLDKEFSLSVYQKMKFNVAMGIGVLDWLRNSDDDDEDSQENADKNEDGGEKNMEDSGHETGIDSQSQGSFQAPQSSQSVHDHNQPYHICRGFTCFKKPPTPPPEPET
- Format: functional, Betapolyomavirus macacae
Activity calls are given as the source filed them.
Endpoint: IC50

Input O=C(O)c1ccccc1NS(=O)(=O)c1cccc(-n2sc3ccccc3c2=O)c1 , output reported IC50.
13.2 µM (active)

Input CCOc1cc(/C=N/NC(=O)CCc2nnc(O)nc2O)ccc1O , output reported IC50.
32.7 µM (active)

Input CN(C)c1ccc(NC(=O)CCN2CCN(c3ccccn3)CC2)cc1 , output reported IC50.
6.73 µM (active)

Input Cc1nnc(SCC(=O)Nc2ccc(N(C)C)cc2)n(N)c1=O , output reported IC50.
11.6 µM (active)

###

Listed next: entries and their corresponding AC50.
- Measurement target: Cytochrome P450 3A4 (Homo sapiens);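 also: CYP3A4 tested as one member of a cytochrome P450 panel screen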
- Sequence (P08684 whole entry): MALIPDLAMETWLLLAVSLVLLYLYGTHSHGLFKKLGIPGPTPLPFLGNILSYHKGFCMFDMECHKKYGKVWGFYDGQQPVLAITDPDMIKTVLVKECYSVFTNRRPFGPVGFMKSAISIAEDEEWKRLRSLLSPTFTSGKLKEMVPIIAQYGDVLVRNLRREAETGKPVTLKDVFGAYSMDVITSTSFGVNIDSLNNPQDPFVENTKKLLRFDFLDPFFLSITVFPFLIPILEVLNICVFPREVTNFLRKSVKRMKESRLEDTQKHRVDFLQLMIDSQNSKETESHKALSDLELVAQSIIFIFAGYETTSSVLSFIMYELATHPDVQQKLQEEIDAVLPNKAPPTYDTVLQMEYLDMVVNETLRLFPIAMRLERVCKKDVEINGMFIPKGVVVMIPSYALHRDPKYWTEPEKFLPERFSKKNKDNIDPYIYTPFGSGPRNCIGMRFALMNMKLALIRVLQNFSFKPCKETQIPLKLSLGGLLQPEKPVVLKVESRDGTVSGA

Record excerpt, results attached:
Molecule	AC50
O=C(O)CC/C=C\C[C@@H]1CO[C@H](c2ccccc2Cl)O[C@@H]1c1ccccc1O	15.8 µM (inconclusive)
COc1ccc(N2C(=O)NC3CC2(C)Oc2ccccc23)cc1OC (stereo unspecified)	22.4 µM (inconclusive)
O=C1CCCC=C1[C@H](CCc1ccccc1)OC(=O)c1ccc(Br)cc1	5.01 µM (inconclusive)
O=C(Nc1ccccc1)N1CC[C@@]2(CCCN(C(=O)c3ccncc3)C2)C1	15.8 µM (inconclusive)
COc1cccc(Cn2c(=O)cnc3cncnc32)c1	20 µM (inconclusive)

Consider now this further molecule.
Input Cc1ccc(N=Nc2c(N)nn3c(O)c4c(nc23)CCCC4)cc1 , output reported AC50.
7.94 µM (inconclusive)

###

Parameter AC50, tested on Cytochrome P450 2C9 (Homo sapiens), listed per item.
Sequence (P11712 whole entry): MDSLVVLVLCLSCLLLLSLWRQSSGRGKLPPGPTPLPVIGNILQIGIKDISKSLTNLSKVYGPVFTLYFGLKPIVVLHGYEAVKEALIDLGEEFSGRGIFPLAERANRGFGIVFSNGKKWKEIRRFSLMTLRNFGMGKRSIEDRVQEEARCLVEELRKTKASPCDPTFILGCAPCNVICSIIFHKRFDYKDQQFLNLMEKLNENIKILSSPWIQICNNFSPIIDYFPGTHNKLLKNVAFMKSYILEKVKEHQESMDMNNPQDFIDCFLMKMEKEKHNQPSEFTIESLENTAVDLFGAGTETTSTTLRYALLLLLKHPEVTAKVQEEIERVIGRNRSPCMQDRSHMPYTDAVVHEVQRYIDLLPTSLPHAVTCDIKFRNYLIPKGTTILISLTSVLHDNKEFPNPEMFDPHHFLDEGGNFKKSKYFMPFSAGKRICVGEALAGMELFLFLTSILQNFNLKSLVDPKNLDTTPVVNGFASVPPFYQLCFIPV

Record excerpt, results attached:
Compound	AC50
COc1cc(CNn2nnnc2N)ccc1OCc1c(Cl)cccc1Cl	25.1 µM (inconclusive)
COc1cccc(C(=O)C2=C(O)C(=O)N(c3ccccn3)C2c2ccc(OC)c(OC)c2)c1 (stereo not given)	15.8 µM (inconclusive)
c1ccc(N2CCCC3(CCNCC3)C2)nc1	39.8 µM (inconclusive)
CCC/C=C(\CCC)C(NP(=O)(c1ccccc1)c1ccccc1)c1ccc(C(F)(F)F)cc1 (stereo not given)	12.6 µM (inconclusive)
CNC(=O)NC(=S)NC(=O)c1ccc(OC)cc1	31.6 µM (inconclusive)

State AC50 (Cytochrome P450 2C9 (Homo sapiens)) of CC(=O)c1cc(C#N)c(Oc2ccc(F)cc2)nc1C .
3.98 µM (inconclusive)

State AC50 (Cytochrome P450 2C9 (Homo sapiens)) of COc1ccc2c(=O)c(-c3ccccc3)c(C)oc2c1 .
10 µM (inconclusive)

State AC50 (Cytochrome P450 2C9 (Homo sapiens)) of COC(=O)[C@@]1(Cc2ccc(F)cc2)[C@H]2c3cc(C(=O)N(C)C)n(CCc4ccccn4)c3C[C@H]2CN1C(=O)c1ccccc1 .
10 µM (inconclusive)

State AC50 (Cytochrome P450 2C9 (Homo sapiens)) of COc1ccc(Oc2ncc3nc(-c4ccc(OC)cc4)c(=O)n(Cc4cccs4)c3n2)cc1 .
3.16 µM (inconclusive)

State AC50 (Cytochrome P450 2C9 (Homo sapiens)) of O=C(Nc1ccc(Cl)cc1)NC1CCCCC1 .
12.6 µM (inconclusive)

###

Listed next: entries and their corresponding EC50.
- Test system: BJ
- Experiment summary: BJ-TERT-LT-ST fibroblast viability loss – cell-based, RAS-independent, luminescence, dose response (AID 1935);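 also: BJ fibroblasts immortalized with TERT plus LT and ST oncogenes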
- Type: functional
- Condition notes: Homo sapiens
Activity calls are given as the source filed them.

Record excerpt, results attached:
COc1ccc(-c2ccc(NC(=O)c3ccco3)cc2)nn1 21.8 µM (active)
Cc1ccc(Nc2nc(N)nc(CCl)n2)c(C)c1 10.4 µM (active)
Cc1ccc(-n2c(SCC(=O)Nc3ncc(Cl)cc3Cl)nc3ccccc32)cc1 > 150 µM (not active)

Consider now this further molecule.
Input O=C1C=C(Nc2cccc3cccnc23)c2ccccc2C1=O , output reported EC50.
6.37 µM (inconclusive)

###

- Measurement target: Tyrosine-protein phosphatase non-receptor type 11 (Homo sapiens, UniProt Q06124)
- Sequence (Q06124 whole entry): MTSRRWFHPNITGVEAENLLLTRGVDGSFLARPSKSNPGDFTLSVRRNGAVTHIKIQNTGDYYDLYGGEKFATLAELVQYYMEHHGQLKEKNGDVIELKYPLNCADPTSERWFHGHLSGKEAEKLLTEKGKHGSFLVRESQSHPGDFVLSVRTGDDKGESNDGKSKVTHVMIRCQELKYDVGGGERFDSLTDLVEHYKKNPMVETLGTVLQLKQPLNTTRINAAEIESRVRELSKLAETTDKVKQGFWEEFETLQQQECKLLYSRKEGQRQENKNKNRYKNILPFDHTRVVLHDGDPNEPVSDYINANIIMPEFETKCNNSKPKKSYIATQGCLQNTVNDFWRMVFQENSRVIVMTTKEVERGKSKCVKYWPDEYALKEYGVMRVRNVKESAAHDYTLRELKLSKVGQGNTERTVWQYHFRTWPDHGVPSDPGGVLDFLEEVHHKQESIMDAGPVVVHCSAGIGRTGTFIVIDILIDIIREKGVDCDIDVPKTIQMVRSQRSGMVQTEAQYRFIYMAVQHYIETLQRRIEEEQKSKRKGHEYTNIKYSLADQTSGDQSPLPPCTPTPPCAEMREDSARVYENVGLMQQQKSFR
- Experiment summary: PTPN11 enzyme inhibitors – biochemical, selectivity assay for STEP inhibitor project, dose response (AID 602367)
- Assay type: functional
- Condition notes: read-out: IC50_Mean
Activity calls are given as the source filed them.
Endpoint: IC50

Record excerpt, results attached:
N=C1S/C(=C\c2ccc(O)cc2)C(=O)N1c1ccc(F)cc1 2200 nM (active)
CCOc1ccc(/C=N/NC(=O)c2cc3c(OC)cccc3[nH]2)cc1 1650 nM (active)
CCCCC(=O)Nc1ccc(C(=O)NNC(=O)c2ccc(C)c(Br)c2)cc1 3170 nM (active)

Consider now this further molecule.
Input O=C(COc1ccc(/C=N/NC(=O)c2ccccc2O)cc1)Nc1ccccc1 , output reported IC50.
4220 nM (active)

###

Listed next: entries and their corresponding EC50.
- System: BJ
- Experiment summary: cells
- Type: functional, cell-based
- Condition notes: Homo sapiens
The source made the active and inactive calls.

Compound	Test result
COc1ccc(-c2ccc(NC(=O)c3ccco3)cc2)nn1	10.1 µM (active)

Input CCc1cc(C(=O)N2CCc3c([nH]c4ccccc34)C2c2ccc(OC)cc2F)no1 (centres undefined) , output reported EC50.
> 150 µM (not active)

Input N#CC1=C(N)N2C(=C(C#N)C1c1ccc(Br)cc1)Nc1ccccc12 (centres undefined) , output reported EC50.
62.4 µM (active)

Input Cc1ccc(Nc2nc(N)nc(CCl)n2)c(C)c1 , output reported EC50.
1.05 µM (active)

###

- Measurement target: Short transient receptor potential channel 4 (Mus musculus, UniProt Q9QUQ5)
- Sequence (Q9QUQ5 whole entry): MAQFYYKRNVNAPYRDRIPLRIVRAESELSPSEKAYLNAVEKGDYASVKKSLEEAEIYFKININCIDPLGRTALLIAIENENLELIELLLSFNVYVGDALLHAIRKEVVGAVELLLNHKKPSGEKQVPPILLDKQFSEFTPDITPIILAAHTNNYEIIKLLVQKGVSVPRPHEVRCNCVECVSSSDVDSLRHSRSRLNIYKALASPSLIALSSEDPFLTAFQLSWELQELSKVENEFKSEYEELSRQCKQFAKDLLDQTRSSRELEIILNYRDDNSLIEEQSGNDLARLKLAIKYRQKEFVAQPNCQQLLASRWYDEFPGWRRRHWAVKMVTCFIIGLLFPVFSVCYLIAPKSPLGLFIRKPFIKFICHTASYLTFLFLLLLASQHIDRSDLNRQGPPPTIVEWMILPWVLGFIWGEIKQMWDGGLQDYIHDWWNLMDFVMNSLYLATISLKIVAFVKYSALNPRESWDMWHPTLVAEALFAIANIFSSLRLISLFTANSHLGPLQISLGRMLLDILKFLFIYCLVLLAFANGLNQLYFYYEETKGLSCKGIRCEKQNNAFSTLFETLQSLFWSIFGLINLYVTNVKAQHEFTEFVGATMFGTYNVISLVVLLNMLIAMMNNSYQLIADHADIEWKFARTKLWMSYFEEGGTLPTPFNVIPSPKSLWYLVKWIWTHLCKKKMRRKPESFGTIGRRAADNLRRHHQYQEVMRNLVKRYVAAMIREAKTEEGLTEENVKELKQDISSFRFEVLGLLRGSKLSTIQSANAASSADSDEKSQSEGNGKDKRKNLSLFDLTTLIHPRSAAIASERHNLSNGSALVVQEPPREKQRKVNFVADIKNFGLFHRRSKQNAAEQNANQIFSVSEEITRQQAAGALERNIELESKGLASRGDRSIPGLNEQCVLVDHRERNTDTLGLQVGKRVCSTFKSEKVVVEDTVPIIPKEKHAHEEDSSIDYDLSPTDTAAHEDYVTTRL
- Experiment summary: block of DAMGO-driven TRPC4 calcium entry – cell-based, HEK293 TRPC4/mu-opioid, Fluo-4 calcium, dose response (AID 434942);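 also: potency of inhibitors blocking the TRPC4 calcium response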
- Format: functional
The source made the active and inactive calls.
Listed next: entries and their corresponding EC50.

Record excerpt, results attached:
Compound	EC50
CCOc1ccccc1N(CC)C(=O)c1nn(C)c2c1CSc1ccccc1-2	2990 nM (active)
N#C/C(=N\Nc1cccc([N+](=O)[O-])c1)C(=O)c1ccc(Br)cc1	3350 nM (active)
O=C(NC1CCCCC1)N1CCN(C(c2ccccc2)c2ccccc2)CC1	1500 nM (active)
CCOc1ccc2c(C)nc(NC3=NC(C)=CC(C)(C)N3)nc2c1	1680 nM (active)
c1ccc2c(N3CCCCC3)nc(N3CCOCC3)nc2c1	1880 nM (active)

Input COc1cccc(-c2nn(-c3ccccc3)cc2CN(C)C(C)c2ccncn2)c1 (configuration not stated) , output reported EC50.
2990 nM (active)

Input CCCN(c1nc(C)cc(OC)n1)S(=O)(=O)c1ccccc1 , output reported EC50.
2110 nM (active)

###

- Measurement target: Cytochrome P450 2D6 (Homo sapiens);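 also: CYP2D6 member of a cytochrome P450 panel assay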
- Sequence (P10635 whole entry): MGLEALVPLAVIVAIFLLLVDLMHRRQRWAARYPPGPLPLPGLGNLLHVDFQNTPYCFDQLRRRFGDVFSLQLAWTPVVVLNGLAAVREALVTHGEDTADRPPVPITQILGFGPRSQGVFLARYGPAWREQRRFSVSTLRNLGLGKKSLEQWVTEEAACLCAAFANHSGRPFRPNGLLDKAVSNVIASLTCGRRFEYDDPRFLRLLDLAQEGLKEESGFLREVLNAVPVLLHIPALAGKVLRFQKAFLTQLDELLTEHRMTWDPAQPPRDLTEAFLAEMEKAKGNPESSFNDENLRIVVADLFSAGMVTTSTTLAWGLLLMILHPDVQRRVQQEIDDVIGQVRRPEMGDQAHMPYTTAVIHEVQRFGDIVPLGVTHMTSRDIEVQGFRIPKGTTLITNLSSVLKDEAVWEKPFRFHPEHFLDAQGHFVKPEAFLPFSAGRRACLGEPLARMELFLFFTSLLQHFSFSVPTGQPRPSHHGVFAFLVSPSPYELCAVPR
Listed next: entries and their corresponding AC50.

Record excerpt, results attached:
Molecule	AC50
COc1ccccc1CNc1cc(-c2ccc(C(=O)N(C)C)cc2)ncn1	12.6 µM (inconclusive)
C[N+](C)(C)CC[N+]1(C)Cc2c(Cl)c(Cl)c(Cl)c(Cl)c2C1	15.8 µM (inconclusive)
Cc1c(C(=O)NN2CCOCC2)nn(-c2ccc(Cl)cc2Cl)c1-c1ccc(I)cc1	12.6 µM (inconclusive)
CN(CCCNC(=O)C1CCC(=O)N1Cc1ccccc1Cl)c1ccccc1 (stereo unspecified)	8.91 µM (inconclusive)

State AC50 (Cytochrome P450 2D6 (Homo sapiens)) of O=C1CN=C(Nc2ccccc2)N1Cc1cccs1 .
25.1 µM (inconclusive)

State AC50 (Cytochrome P450 2D6 (Homo sapiens)) of COCC(=O)N1CCC2(CC1)CN(C(=O)Nc1ccccc1)C2 .
39.8 µM (inconclusive)

State AC50 (Cytochrome P450 2D6 (Homo sapiens)) of COc1cccc(Cn2c(=O)c(-c3ccc(F)cc3)nc3cnc(N4CCNCC4)nc32)c1 .
25.1 µM (inconclusive)

State AC50 (Cytochrome P450 2D6 (Homo sapiens)) of O=C(c1ccncc1)N1CCC2(CCCN(c3ccccn3)C2)CC1 .
25.1 µM (inconclusive)

State AC50 (Cytochrome P450 2D6 (Homo sapiens)) of CN(C)c1ncc2ncc(=O)n(Cc3ccc(F)cc3)c2n1 .
12.6 µM (inconclusive)

State AC50 (Cytochrome P450 2D6 (Homo sapiens)) of O=C(O)CC/C=C\C[C@@H]1CO[C@H](c2ccccc2Cl)O[C@@H]1c1ccccc1O .
20 µM (inconclusive)

State AC50 (Cytochrome P450 2D6 (Homo sapiens)) of CCN1CCN(CCCNC(=O)c2cc3cc4ccc(OC)cc4nc3o2)CC1 .
1.41 µM (inconclusive)
